Data credit: patent US10155754B2

Test system: AEA cellular uptake (U937 cells)
TEST_DESCRIPTION: [3H]-AEA cellular uptake inhibition in U937 cells
Format: cell-based
TEST_PARAMETERS: U937 cells, final 100 nM AEA with 0.5 nM [3H]-AEA, 15 min at 37° C.; read-out: AEA uptake IC50
ASSAY_READOUT: pIC50
Remember, pIC50 is on a log scale: it is -log10 of the molar concentration.

Answered examples (2):
COMPOUND	RECORDED_NUMBER
Cc1ccc(N2C(=O)/C(=C/c3ccc4[nH]cnc4c3)S/C2=N\c2ccc(F)cc2)cc1 [04_B_A]	6.28
O=C1/C(=C/c2ccc(CO)cc2)S/C(=N\Cc2ccccc2)N1CCCc1ccccc1 [22_C_K]	5.84

Reported pIC50, compound COCc1cccc(/C=C2\S/C(=N\Cc3ccccc3)N(c3ccccc3)C2=O)c1 [15_C_N] : ____ 5.77

Reported pIC50, compound O=C1/C(=C/c2ccc(CO)cc2)S/C(=N\Cc2ccccc2)N1CCc1ccccc1 [22_C_O] : ____ 5.92

Reported pIC50, compound CCCCCCCCCCCCN1C(=O)/C(=C/c2ccc(CO)cc2)S/C1=N\c1ccc(F)cc1 [23_A_V] : ____ 4.98

Reported pIC50, compound O=C1/C(=C/c2ccc(CO)cc2)S/C(=N\c2ccccc2)N1CCCc1ccccc1 [22_N_K] : ____ 6.06

---

TESTED_ON: FAAH (Homo sapiens, UniProt O00519)
Construct: endogenous in cells
TEST_DESCRIPTION: FAAH activity: hydrolysis of [3H]-AEA in U937 cell homogenates
TEST_PARAMETERS: [3H]-AEA hydrolysis, final 100 nM AEA, read-out: FAAH inhibition IC50
pIC50: −log10 of the molar value.
pIC50 overview

Reported pIC50, molecule O=C1/C(=C/c2ccc3[nH]cnc3c2)S/C(=N\c2ccccc2)N1c1ccccc1 [compound 04] : ____ < 4.00

Reported pIC50, molecule Cc1ccc(/N=C2\S/C(=C\c3ccc(CO)cc3)C(=O)N2c2ccc(C)cc2)cc1 [22_A_A] : ____ < 4.00

Reported pIC50, molecule CC(C)CN1C(=O)/C(=C/c2ccc3[nH]ccc3c2)S/C1=N\c1ccc(F)cc1 [03_B_X] : ____ < 4.00

Reported pIC50, molecule COc1ccc(C/N=C2\S/C(=C\c3ccc4c(c3)OCCO4)C(=O)N2c2ccc(Cl)cc2)cc1 [24_Q_L] : ____ 6.09

Reported pIC50, molecule O=C1/C(=C/c2ccc3c(c2)OCCO3)S/C(=N\Cc2ccccc2)N1c1ccccc1 [24_C_N] : ____ 5.80

Reported pIC50, molecule COc1ccc(/N=C2\S/C(=C\c3ccc(CO)cc3)C(=O)N2c2ccccc2)cc1 [22_F_N] : ____ < 4.00

Reported pIC50, molecule O=C1/C(=C/c2ccc3ncsc3c2)S/C(=N\c2ccccc2)N1c1ccccc1 [compound 32] : ____ < 4.00

---

Test system: AEA cellular uptake (U937 cells)
TEST_DESCRIPTION: [3H]-AEA cellular uptake inhibition in U937 cells
Format: cell-based
TEST_PARAMETERS: Homo sapiens, U-937, U937 cells, final 100 nM AEA with 0.5 nM [3H]-AEA, 15 min at 37° C.; read-out: AEA uptake inhibition IC50
IC50 overview
# value in nM; strip the unit string

Answered examples (4):
COMPOUND	ASSAY_READOUT	UNIT_INFO	RECORDED_NUMBER
COc1ccc(/C=C2\S/C(=N\c3ccccc3)N(Cc3ccco3)C2=O)cc1	IC50	nM	3180
COc1ccc(/C=C2\S/C(=N\c3ccc(C)cc3)N(c3ccccc3)C2=O)cc1	IC50	nM	5100
CCCCN1C(=O)/C(=C/c2ccc3[nH]ccc3c2)S/C1=N\c1ccccc1	IC50	nM	677
O=C1/C(=C/c2ccc(CO)cc2)S/C(=N\c2ccccc2)N1Cc1ccco1 [drawing 157]	IC50	nM	1310

Reported IC50, compound Cc1ccc(/N=C2\S/C(=C\c3ccc4[nH]cnc4c3)C(=O)N2c2ccccc2)cc1 [drawing 144] : ____ 107

Reported IC50, compound O=C1/C(=C/c2ccc3c(c2)OCCO3)S/C(=N\c2ccccc2)N1c1ccccc1 [drawing 119] : ____ 817

---

Test system: AEA cellular uptake (U937 cells)
TEST_DESCRIPTION: [3H]-AEA cellular uptake inhibition in U937 cells
Type: cell-based
TEST_PARAMETERS: Homo sapiens, U-937, U937 cells, final 100 nM AEA with 0.5 nM [3H]-AEA, 15 min at 37° C.; read-out: AEA uptake inhibition IC50
Experimental: [^3H]-AEA Cellular Uptake Screening for AEA cellular uptake inhibition was performed in a semi-automated procedure: Pipetting and washing steps were performed by a Biomek3000 laboratory workstation. […] The ETI-T compounds were measured at up to 7 concentrations in triplicates from 100 pM-100 μM. […] Radioactivity was measured by liquid scintillation counting on a PerkinElmer Wallac Trilux MicroBeta 1450 during 2 min. […]
ASSAY_READOUT: IC50 (nM)
# value in nM; strip the unit string

COMPOUND	UNIT_INFO	IC50
COc1ccnc(/C=C2\S/C(=N\c3ccccc3)N(c3ccccc3)C2=O)c1	nM	1600
CCCCN1C(=O)/C(=C/c2ccccc2)S/C1=N\c1ccccc1	nM	4150
COCc1cccc(/C=C2\S/C(=N\Cc3ccccc3)N(c3ccccc3)C2=O)c1 [drawing 139]	nM	1690

Reported IC50, compound COc1ccc(/N=C2\S/C(=C\c3ccc4[nH]ccc4c3)C(=O)N2c2ccccc2)cc1 [drawing 150] : ____ 1070

Reported IC50, compound "COc1ccc(/C=C2\S/C(=N\c3ccccc3)N(c3ccccc3)C2=O)cn1" : ____ 15600

Reported IC50, compound "O=C1/C(=C/c2ccc3scnc3c2)S/C(=N\c2ccccc2)N1c1ccccc1" : ____ 11800

Reported IC50, compound O=C1/C(=C/c2ccc3ncsc3c2)S/C(=N\c2ccccc2)N1c1ccccc1 [drawing 129] : ____ 291

Reported IC50, compound O=C1/C(=C/c2ccc3c(c2)OCCO3)S/C(=N\Cc2ccccc2)N1c1ccccc1 [drawing 133] : ____ 170

Reported IC50, compound O=C1/C(=C/c2ccc(CO)cc2)S/C(=N\c2ccccc2)N1Cc1ccccc1 [drawing 156] : ____ 657

---

TESTED_ON: FAAH (Homo sapiens, UniProt O00519)
Construct: endogenous in cells
Sequence (O00519 1-579): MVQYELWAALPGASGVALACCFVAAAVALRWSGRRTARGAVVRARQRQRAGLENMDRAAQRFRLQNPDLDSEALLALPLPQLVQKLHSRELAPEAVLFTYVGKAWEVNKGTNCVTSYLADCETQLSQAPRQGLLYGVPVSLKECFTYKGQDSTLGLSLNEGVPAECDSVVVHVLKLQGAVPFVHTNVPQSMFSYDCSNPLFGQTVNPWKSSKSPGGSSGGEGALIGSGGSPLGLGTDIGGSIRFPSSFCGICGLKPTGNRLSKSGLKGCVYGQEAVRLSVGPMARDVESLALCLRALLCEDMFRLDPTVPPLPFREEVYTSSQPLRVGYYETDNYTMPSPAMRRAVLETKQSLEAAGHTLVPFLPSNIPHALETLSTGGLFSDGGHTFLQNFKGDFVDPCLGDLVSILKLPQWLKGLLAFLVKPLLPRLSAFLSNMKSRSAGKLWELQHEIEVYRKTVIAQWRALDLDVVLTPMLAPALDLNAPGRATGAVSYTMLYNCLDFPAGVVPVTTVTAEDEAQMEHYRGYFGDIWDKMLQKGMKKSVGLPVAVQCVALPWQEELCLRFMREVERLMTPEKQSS
TEST_DESCRIPTION: FAAH activity: hydrolysis of [3H]-AEA in U937 cell homogenates
TEST_PARAMETERS: [3H]-AEA hydrolysis, final 100 nM AEA, read-out: FAAH inhibition IC50
ASSAY_READOUT: IC50

Answered examples (7):
MOLECULE	IC50
O=C1/C(=C/c2ccc3c(c2)OCCO3)S/C(=N\Cc2ccc(F)cc2)N1c1ccccc1	0.912 µM
O=C1/C(=C/c2ccc3[nH]ccc3c2)S/C(=N\Cc2ccccc2Cl)N1c1ccccc1	> 100 µM
O=C1/C(=C/c2ccc3c(c2)OCCO3)S/C(=N\c2ccc(F)cc2)N1c1ccc(F)cc1	> 100 µM
O=C1/C(=C/c2ccc3c(c2)OCCO3)S/C(=N\c2ccc(F)cc2)N1C1CCCCC1 [24_B_I]	> 100 µM
Cc1ccc(/N=C2\S/C(=C\c3ccc(CO)cc3)C(=O)N2CC(C)C)cc1	> 100 µM
O=C1/C(=C/c2ccc3c(c2)OCCO3)S/C(=N\c2ccc(F)cc2)N1C1CCCCC1 [22_B_I]	> 100 µM
Cc1ccc(N2C(=O)/C(=C/c3ccc4c(c3)OCCO4)S/C2=N\Cc2ccc(F)cc2)cc1	1.51 µM

Shifting focus to the molecule that follows.
Reported IC50, molecule "O=C1/C(=C/c2ccc(CO)cc2)S/C(=N\CCCc2ccccc2)N1c1ccccc1" : ____ 6.61 µM
